- Measurement notes: yeast display, Sf9 membrane polyspecificity reagent, FACS + sequencing; frameworks hold sequencing errors
Quantity measured: polyreactivity (PSR sort gate)

{"Residues": "QVQLVESGGGLVQAGGSLRLSCAASGLTFQWNAMGWYRQAPGKERELVAGITDIGDSTYYADSVKGRFTISRDNAKNTVYFQMNSLKPEDTAVYYCNATSGYKHAWRSENGYWGQGTQVTVSS", "Recorded result": "low polyreactivity"}
{"Residues": "QVQLVESGGGLVQAGGSLRLSCAASGSTFTDYDMGWYRQAPGKERELVAAISSGGSTYYADSVKGRFTISRDNAKNTVYLQMNSLKPEDTAVYYCAAVLGVWGGVGSEGDYWGQGTQVTVSS", "Recorded result": "low polyreactivity"}
{"Residues": "QVQLVESGGGLVQAGGSLRLSCAASGRIFYSYAMGWYIPAPGKERELVAAITVSGGSTFYADSVKGRFTISRDNAKNTVYLQMNSLKPEDTAVYYCAAQSTTIEDGWYVEYNYWGQGTQVTVSS", "Recorded result": "high polyreactivity"}
{"Residues": "QVQLVESGGGLVKAGGSLRLSCAASGSTYQTYAMGWYRHAPGKERELVAAISFNGGSTYYADSVKGRFTISRDNAKNTVYLQMNSLKPEDTAVYYCAVEYTWASALYDGRHDYWGQGTQVTVSS", "Recorded result": "high polyreactivity"}
{"Residues": "QVQLVESVGGLVQAGGSLRLSCAASGSTCQRYAIGWYRQAPGKERELVAAISDGGSTNYADSVKGRFTISRDNAKNTVYLQMNSLKPEDTAVSYCAAKYLSRYDYWGQGTQVTVSS", "Recorded result": "low polyreactivity"}
{"Residues": "QVQLVESGGGLVQAGGSLRLSCAASGITIRPYTMGWYRQAPGKERELVARISRRGGSTYYADSVKGRFTISRDNAKNTVYLQMNSLKPEDTAVYYCATRSRAHISPYDYWGQGTQVTVSS", "Recorded result": "high polyreactivity"}
{"Residues": "QVQLVESGGGLFQAGGSLRLSCAASGSTIQQYAMGWYRQAPGKEREFVAAISWRGGRTYYADSVKGRFTISRDNAKNTVYLQMNRLKPEDTAVYYCAVDPSIYRLSAYYYDYWGQGTQVTVSS", "Recorded result": "low polyreactivity"}
{"Residues": "QVQIVESGGGLVQAGGSLRISCSASGRTLRSYAMGWYRHAPGKERELVAAISRSGGSTNYADSVKGRFTISHDNAKNTVYLQMNSLKPEETAVYYCNTYSTSWKMDYWGQGTKVTVSS", "Recorded result": "high polyreactivity"}
{"Residues": "QVQLVESGGGLVQAGGSLRLSCAASGSIFSSYAMGWYRQAPGKERELVAGISKSGGSTYYADSVKGRFTISRDNAKNTVYLQMNSQKPEDTAVYYCAGPSYWGGGRYRYGYWGQGTQVTVSS", "Recorded result": "high polyreactivity"}
{"Residues": "QVQLVESGGGLVQAGGSLRLSFAASGSTFTPNVMGWYRQAPGKERELVAAINSSGGSTFYADSVKGRFTISRDNANNTVYLQMNSLKPEDTAVYYCAASWHTPTVYDEYYYWGQGTQVNVSS", "Recorded result": "low polyreactivity"}
{"Residues": "QVQLVESGGGLVQARGSLRLSCAASGRIFGLYAMGWYRQAPGKERELVASINSRGGSTNYADSVKGRFTISRDNAKNTVYLQMTSLKPEDTAVYYCNARFVYAYQRYYWGQGTQVTVSS", "Recorded result": "high polyreactivity"}
{"Residues": "QVQLVESGGGLVQAGGRLRLSCAASGGTFSSNAMGWYRQSPGKERELVAAITWSGGSTYYADSVKGRFTISRDNAKNTVYLQMNSLKPEDTAVYYCNARNQWRTVGKYDYWGQGTQVTVSS", "Recorded result": "low polyreactivity"}
{"Residues": "QVQLQESGGGLVLAGGSLRLSCSASGNISVYGSMGWYRQAPGKVREFVATIDPGTNTNYADSVKDRFTISRDNAKNTVYLQMNSLKPEDTAVYYCAVEAGSDWPYRYWGQGTQVTVSS", "Recorded result": "low polyreactivity"}
{"Residues": "QVQLVESGGGLVQAGGSLRLSCAASGRTFWYNAMGWYRQAPRKERELVAAISSGSSTKYADSVKGRFTISRDNAKNTVYLQMNSLKPEDTAVYYCARGGWAYCPRYNYWGQGTQVTVSS", "Recorded result": "high polyreactivity"}
{"Residues": "QVQLVESGGGLVQAGGSLRLSCAASGRTFRGNVMGWYRQATGKEREFVAAITRSGSNTYYADSVKGRFTISRDYAKTTVYLQMNSLKPEDTAVYDCAKSVLLGYKRHDSWGQGTQVTVSS", "Recorded result": "high polyreactivity"}
{"Residues": "QVQLVESGGGLVQAGGSLRLSCAASGRIFAWYAMGWYRQAPGKERELVAGISWIGGSTYYADSVKGRFTISRDNAKNTVYLQMNSLKPEDTAVYYCNARKKPGSRLDIIGYDYWGQGTQVTVSS", "Recorded result": "low polyreactivity"}
{"Residues": "QVQLVESGGVLVQAGGSLRLSCAASGNIFVPYAMGWYRQAPGKERDLVAAISSRGGRTYYADSVKGRFTISRDNAKNTVYLQMNSLKPEDTAVFYCNKVAKSSVLTLDYWGQGTQVTVSS", "Recorded result": "high polyreactivity"}
{"Residues": "QVQLVESGGGLVQAGGSLRLSCAASGRTSNVYAMGWYRQAPGKERELVAAISSRDGTTYYADSVKGRFTISRDNAKNTVYLQMNSLKPEDTAVYYCAAAVLSYADYYYDYEYWGQGTQVTVSS", "Recorded result": "high polyreactivity"}
{"Residues": "QVQLVESGGGLVQAGGSLRLSCAASGLTVDTYDMGWYIQAPGKERELVAAIDWSGVSTYYADSVKGRFTISRDNAKNTVYLQKNSLKTEDTAVYYCAADLLQYDIASWDYTYDYWGQGTQVTVSS", "Recorded result": "low polyreactivity"}
{"Residues": "QVQLVESGGGLVQAGGSLRLSCAASGSTFWFYAMGWYRQAHGKERELVAVISNSGSTYYADSVKGRFTISRDNAKNTVYLQMNSLKPEDTAVYYCNKDGGGDSYWYDYWGQGTQVTVSS", "Recorded result": "low polyreactivity"}
{"Residues": "QVQLVESGGGLVQAGGSLRLSCAASGFTIIIYAMGWYRQAPGKERQLVAAINTSGTRTYYADSVKGRFTISRDNAKNTVYLQMNSLKPEDTAVYYCAARSGYKGEHGDRDDYWGQGTQVTVSS", "Recorded result": "high polyreactivity"}
